system: Endogenous Huntingtin Protein; assay: Endogenous Huntingtin Protein Assay (Meso Scale Discovery ELISA-based electrochemiluminescence); format: cell-based; details: MSD electrochemiluminescence, Table 1
pIC50: −log10 of the molar value.
RECORDED_METRIC: pIC50

A selection of reference data follows.
COMPOUND: CN(c1ccc2cc(-c3ccc4nn(C)cc4c3)ccc2n1)C1CC(C)(C)NC(C)(C)C1 [Compound 12]
VAL: 6.00 to 6.30
--
COMPOUND: Cc1cn2nc(-c3cc(F)c4cc(C5CCN(CC(F)F)CC5)nnc4c3)cc(C)c2n1 [Compound 98]
VAL: 6.30 to 7.00
--
COMPOUND: Cc1cn2nc(-c3cc(F)c4cc(N5CCC(N(C)C)CC5)nnc4c3)cc(C)c2n1 [Compound 88]
VAL: ≥ 7.00
--
COMPOUND: Cn1cc2cc(-c3ccc4cc(C5CCNCC5)ccc4n3)ccc2n1 [Compound 1]
VAL: 5.52 to 6.00
--
COMPOUND: Cc1cn2nc(-c3cc(F)c4cc(C5CCNCC5)nnc4c3)cc(C#N)c2n1 [Compound 108]
VAL: ≥ 7.00

// switching to the query compound
Specify pIC50 for Cn1cc2cc(-c3ccc4nc(C5CCNCC5)ccc4c3)ccc2n1 [Compound 3] and stop. 6.30 to 7.00

====

System: Endogenous Huntingtin Protein
Test: Endogenous Huntingtin Protein Assay (Meso Scale Discovery ELISA-based electrochemiluminescence)
Type: cell-based
Settings: MSD electrochemiluminescence, Table 1
Method: Compounds of Formula (I) were tested using the Meso Scale Discovery (MSD) Assay provided in International Application No. PCT/US2016/066042, filed on Dec. 11, 2016 and claiming priority to United States Provisional Application U.S. 62/265,652 filed on Dec. 10, 2015, the entire contents of which are incorporated herein by reference. The Endogenous Huntingtin Protein assay used in Example 1 was developed using the ELISA-based MSD electrochemiluminescence assay platform. […]
Measured IC50 accompanies every entry in the list below.

Field: example entries. Status: answers known.
COMPOUND: Cc1nc2c(C)cc(-c3cc(F)c4cc(C5CCNCC5)nnc4c3)cc2s1 [Compound 118]
STUDY_TARGET: Endogenous Huntingtin Protein
RECORDED_METRIC: IC50
VAL: 100 to 500 nM
//
COMPOUND: CCN1CCC(c2cc3c(F)cc(-c4cc(CO)c5nc(C)cn5n4)cc3nn2)CC1 [Compound 113]
STUDY_TARGET: Endogenous Huntingtin Protein
RECORDED_METRIC: IC50
VAL: ≤ 100 nM
//
COMPOUND: CCc1cc(-c2cc(F)c3cc(C4CCN(C)CC4)nnc3c2)nn2cc(C)nc12 [Compound 122]
STUDY_TARGET: Endogenous Huntingtin Protein
RECORDED_METRIC: IC50
VAL: ≤ 100 nM
//
COMPOUND: Cc1cn2nc(-c3cc(F)c4cc(C5CCNCC5)nnc4c3)cc(CO)c2n1 [Compound 107]
STUDY_TARGET: Endogenous Huntingtin Protein
RECORDED_METRIC: IC50
VAL: ≤ 100 nM
//
COMPOUND: Cc1cc(-c2ccc3nc(C4CC(C)(C)NC(C)(C)C4)ccc3c2)cc2cn(C)nc12 [Compound 14]
STUDY_TARGET: Endogenous Huntingtin Protein
RECORDED_METRIC: IC50
VAL: 100 to 500 nM
//
COMPOUND: Cc1cn2nc(-c3cc(F)c4cc(C5CCCNC5)nnc4c3)cc(C)c2n1 (centres unmarked) [Compound 216]
STUDY_TARGET: Endogenous Huntingtin Protein
RECORDED_METRIC: IC50
VAL: ≤ 100 nM
//
COMPOUND: CCOc1cc(-c2cc(F)c3nc(C4CCNCC4)nnc3c2)nn2cc(C)nc12 [Compound 59]
STUDY_TARGET: Endogenous Huntingtin Protein
RECORDED_METRIC: IC50
VAL: ≤ 100 nM
//
COMPOUND: CCN1CCC(c2cc3c(F)cc(-c4nc5c(C)nc(C)cc5o4)cc3nn2)CC1 [Compound 136]
STUDY_TARGET: Endogenous Huntingtin Protein
RECORDED_METRIC: IC50
VAL: ≤ 100 nM
//
COMPOUND: Cc1cn2cc(-c3cc(F)c4cc(C5CCNCC5)nnc4c3)cnc2n1 [Compound 91]
STUDY_TARGET: Endogenous Huntingtin Protein
RECORDED_METRIC: IC50
VAL: 1000 to 3000 nM
//
COMPOUND: Cc1nc2c(C)cc(-c3cc(F)c4cc(C5C[C@@H](C)N(C)[C@@H](C)C5)nnc4c3)nc2o1 (some centres unmarked) [Compound 226]
STUDY_TARGET: Endogenous Huntingtin Protein
RECORDED_METRIC: IC50
VAL: ≤ 100 nM

Given the compound CCN1CCC(c2cc(F)c3nc(-c4cc(F)c5nn(C)cc5c4)ccc3c2)CC1 [Compound 193] , write its reported IC50. ≤ 100 nM

Please list IC50 recorded for the compound Cc1cn2nc(-c3cc4c(F)cc(C5CCNCC5)cc4nn3)cc(C)c2n1 [Compound 185] ≤ 100 nM

Quote IC50 reported for Cc1cn2nc(-c3cc(F)c4cc(C5=CCNCC5)nnc4c3)cc(C)c2n1 [Compound 225] please. ≤ 100 nM

Quick one: give measured IC50 for Cc1cc2cc(-c3cc(F)c4cc(C5CCNCC5)nnc4c3)[nH]c2c(C)n1 [Compound 191] 100 to 500 nM

Provide measured IC50 value, entry: Cc1cn2nc(-c3cc(F)c4cc(C5CCN(CCCn6cccn6)CC5)nnc4c3)cc(C)c2n1 [Compound 160] ≤ 100 nM

Annotate the compound CCN1CC=C(c2cc(F)c3nc(-c4cc(F)c5nn(C)cc5c4)ccc3c2)CC1 [Compound 184] with its measured IC50. ≤ 100 nM

Indicate its recorded IC50; the compound in question is CCN1CCC(c2cc(F)c3cc(-c4cc(C)c5nc(C)cn5n4)nnc3c2)CC1 [Compound 186] ≤ 100 nM
